The origin of these recorded values is the supplement of paper PMC10567573.

Reported protein stability index values are given for each entry in this list.
B1: NP_006221.1 (parent)
chain: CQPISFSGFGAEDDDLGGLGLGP

variants of: B1; experiment: protein stability index of a GFP-peptide fusion (GPS, HEK-293T) (PSI 1-6); higher = more stable; details: c terminus: native;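 note: lentivirally expressed fusion library, cells FACS-sorted into six equal-sized GFP/DsRed ratio bins, PSI computed from sequencing read fractions per bin weighted by bin number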
endpoint_label: protein stability index

>>> df
    variant_string           endpoint_label  value
 0             Q2K  protein stability index   2.22
 1             C1R  protein stability index   2.31
 2             P3W  protein stability index   1.94
 3            D15C  protein stability index   2.18
 4            E12H  protein stability index   2.48
 5            G10A  protein stability index   2.16
 6            G17N  protein stability index   2.36
 7            L21F  protein stability index      4
 8            G22Q  protein stability index   2.27
 9            G22K  protein stability index   4.15
10            E12S  protein stability index   2.44
